Test system: Salmonella typhimurium
PROCEDURE SUMMARY: Antimicrobial activity against Salmonella enterica serovar Typhimurium CS3 gyrA+ with GyrA S83F, D87N, ParC S80I mutation
Assay type: functional, Salmonella enterica subsp. enterica serovar Typhimurium
Catalogue of MIC readings, one per entry.

{"MOLECULE": "CC1(C)S[C@@H]2[C@H](NC(=O)[C@H](N)c3ccccc3)C(=O)N2[C@H]1C(=O)O [AMPICILLIN]", "MIC": "> 32 µg/mL"}
{"MOLECULE": "CN1CCN(c2cc3c(cc2F)c(=O)c(C(=O)O)cn3-c2ccc(F)cc2)CC1 [DIFLOXACIN]", "MIC": "0.5 µg/mL"}
{"MOLECULE": "CO[C@@]1(NC(=O)Cc2cccs2)C(=O)N2C(C(=O)O)=C(COC(N)=O)CS[C@@H]21 [CEFOXITIN]", "MIC": "2 µg/mL"}
{"MOLECULE": "CC(=O)OCC1=C(C(=O)O)N2C(=O)[C@@H](NC(=O)Cc3cccs3)[C@H]2SC1 [CEPHALOTHIN]", "MIC": "8 µg/mL"}
{"MOLECULE": "C[C@@H]1CN(c2c(F)c(F)c3c(=O)c(C(=O)O)cn(C4CC4)c3c2F)C[C@H](C)N1 [ORBIFLOXACIN]", "MIC": "0.25 µg/mL"}
{"MOLECULE": "CO/N=C(\\C(=O)N[C@@H]1C(=O)N2C(C(=O)O)=C(CSC(=O)c3ccco3)CS[C@H]12)c1csc(N)n1 [CEFTIOFUR]", "MIC": "1 µg/mL"}
{"MOLECULE": "NC[C@H]1O[C@H](O[C@H]2[C@H](O)[C@@H](O[C@H]3O[C@H](CO)[C@@H](O)[C@H](N)[C@H]3O)[C@H](N)C[C@@H]2N)[C@H](O)[C@@H](O)[C@@H]1O [KANAMYCIN]", "MIC": "> 64 µg/mL"}
{"MOLECULE": "CCn1cc(C(=O)O)c(=O)c2ccc(C)nc21 [NALIDIXIC ACID]", "MIC": "4 µg/mL"}
